Target Under Test: HLA-DR DRB5*0101 (DR51) (Homo sapiens, UniProt P01903+Q30154)
Assay Remarks: biochemical
Type: binding
No end group written: not given here.
Assay Readout: IC50 (nM)
A number alone suffices; assume nM.

Some entries whose results are on file:
Polymer Sequence	Assay Readout	Endpoint Value
EYLILSARDVLAVVS	IC50	4150
GAPLGGAARALAAGV	IC50	8350
VGGVYLLRRAGPRLGV	IC50	7.9

# lookup: HLA-DR DRB5*0101 (DR51) (Homo sapiens, UniProt P01903+Q30154) IC50, key = GAALGGAARALAHGV
25400

# lookup: HLA-DR DRB5*0101 (DR51) (Homo sapiens, UniProt P01903+Q30154) IC50, key = VGGVYALPRRGPRLGV
34

# lookup: HLA-DR DRB5*0101 (DR51) (Homo sapiens, UniProt P01903+Q30154) IC50, key = VGGAYLLPRRGPRLGV
50

# lookup: HLA-DR DRB5*0101 (DR51) (Homo sapiens, UniProt P01903+Q30154) IC50, key = GAPLGGAARAAAHGV
42500

# lookup: HLA-DR DRB5*0101 (DR51) (Homo sapiens, UniProt P01903+Q30154) IC50, key = VGGVYLAPRRGPRLGV
76
